Attribute: pIC50
- target: HIV-1 PR (Human immunodeficiency virus type 1 group M subtype B)
- measurementNotes: HIV-protease inhibitory activity assay (FRET peptide substrate)
- conditionSet: Test Example 1
A value of pIC50 is the negative decimal logarithm of a concentration given in moles per litre.

Please review the following examples before continuing.
{"compound": "COc1ccc(S(=O)(=O)N(CC(C)C)CC(O)C(Cc2ccc(OCCNC(=O)c3cc(-c4ccc(F)cc4F)ccc3O)cc2)NC(=O)OC2COC3(C)OCCC23)cc1 (centres unmarked)", "pIC50": 8.99}
{"compound": "COc1ccc(S(=O)(=O)N(CC2CCCC2)CC(O)C(Cc2ccc(OCc3ccccc3Cn3nc4c(c3C(=O)O)CC(C)(C)CC4)cc2)NC(=O)OC2COC3(C)OCCC23)cc1 (centres unmarked)", "pIC50": 8.71}
{"compound": "COc1ccc(S(=O)(=O)N(CC(C)C)CC(O)C(Cc2ccc(Nc3ncc(-c4sc5c(c4C(=O)O)CC(C)(C)CC5)cn3)cc2)NC(=O)OC2COC3(C)OCCC23)cc1 (centres unmarked)", "pIC50": 8.60}
{"compound": "CC(C)CN(C[C@@H](O)[C@H](Cc1ccccc1)NC(=O)O[C@H]1CO[C@@]2(C)OCC[C@@H]12)S(=O)(=O)c1ccc2nc(NCc3sc4c(c3C(=O)O)CC(C)(C)CC4)sc2c1", "pIC50": 8.70}

Then this compound:
Query: Recorded pIC50 of COc1ccc(S(=O)(=O)N(CC(C)C)CC(O)C(Cc2ccc(N3CCC(C(=O)N(C)c4sc5c(c4C(=O)O)CC(C)(C)CC5)C3)cc2)NC(=O)OC2COC3OCCC23)cc1 (centres unmarked) , please.
Response: 8.59

###

- target: UniProt P04585
- measurementNotes: HIV-protease inhibitory activity assay (FRET peptide substrate)
- Assay type: biochemical
- conditionSet: Test Example 1
valueType: pIC50
A value of pIC50 is the negative decimal logarithm of a concentration given in moles per litre.

Please review the following examples before continuing.
{"compound": "COc1ccc(S(=O)(=O)N(CC(C)C)CC(O)C(Cc2ccc(N3CCC(Oc4ccc(-c5sc6c(c5C(=O)O)CC(C)(C)CC6)cc4)C3)cc2)NC(=O)OC2COC3(C)OCCC23)cc1 (centres unmarked) [Compound I-351]", "observed": 8.29}
{"compound": "COc1ccc(S(=O)(=O)N(CC(C)C)CC(O)C(Cc2ccc(NCc3ccccc3-c3c(C(=O)O)[nH]c4c3CCCC4=O)cc2)NC(=O)OC2COC3(C)OCCC23)cc1 (centres unmarked)", "observed": 8.83}

Query: Recorded pIC50 of COc1ccc(S(=O)(=O)N(CC(C)C)CC(O)C(Cc2ccc(NCC3CCCCC3C(=O)Nc3sc4c(c3C(=O)O)CC(C)(C)CC4)cc2)NC(=O)OC2COC3(C)OCCC23)cc1 (centres unmarked) [Compound I-615] , please.
Response: 8.47

Query: Recorded pIC50 of COc1ccc(S(=O)(=O)N(CC(C)C)CC(O)C(Cc2ccc(NCc3ccc(-c4ccc(-c5sc6c(c5C(=O)O)CC(C)(C)CC6)cc4)cc3)cc2)NC(=O)OC2COC3(C)OCCC23)cc1 (centres unmarked) , please.
Response: 8.11

Query: Recorded pIC50 of COc1ccc(S(=O)(=O)N(CC(C)C)CC(O)C(Cc2ccc(CN(C)c3ccc(-c4sc5c(c4C(=O)O)CC(C)(C)CC5)c(C)c3)cc2)NC(=O)OC2COC3(C)OCCC23)cc1 (centres unmarked) , please.
Response: 8.01

###

- target: HIV-1 PR (Human immunodeficiency virus type 1 group M subtype B)
- measurementNotes: HIV-protease inhibitory activity assay (FRET peptide substrate)
- conditionSet: Test Example 1
Simple rule here: IC50 less than 3 nM is Y, otherwise N.

Here's what some known entries look like.
{"compound": "COc1ccc(S(=O)(=O)N(CC(C)C)C[C@@H](O)[C@H](Cc2ccc(C#Cc3sc4c(c3C(=O)O)CC(C)(C)CC4)cc2)NC(=O)O[C@H]2CO[C@@]3(C)OCC[C@@H]23)cc1", "classLabel": "Y"}
{"compound": "COc1ccc(S(=O)(=O)N(CC(C)C)CC(O)C(Cc2ccc(N3CCC(Oc4ccccc4-c4sc5c(c4C(=O)O)CC(C)(C)CC5)C3)cc2)NC(=O)OC2COC3(C)OCCC23)cc1 (stereo not shown) [Compound I-234]", "classLabel": "N"}
{"compound": "CC1(C)CCc2sc(-c3ccc(CNC(=O)OC[C@]45OCC[C@H]4[C@@H](OC(=O)N[C@@H](Cc4ccccc4)[C@H](O)CN(CC(F)F)S(=O)(=O)c4ccc6ncsc6c4)CO5)cc3)c(C(=O)O)c2C1", "classLabel": "Y"}
{"compound": "COc1ccc(S(=O)(=O)N(CC(C)C)CC(O)C(Cc2ccc(NCc3ccc(C=CC(=O)Nc4sc5c(c4C(=O)O)CC(C)(C)CC5)cc3)cc2)NC(=O)OC2COC3(C)OCCC23)cc1 (stereo not shown)", "classLabel": "N"}
{"compound": "COc1ccc(S(=O)(=O)N(CC(C)C)CC(O)C(Cc2ccc(NCc3ccccc3-c3sc4c(c3C(=O)O)C(=O)CCC4)cc2)NC(=O)OC2COC3(C)OCCC23)cc1 (stereo not shown)", "classLabel": "Y"}

Please look at the following compound next.
Query: Could you please tell me whether IC50 recorded for COc1ccc(S(=O)(=O)N(CC(C)C)CC(O)C(Cc2ccc(OC3CCCN(c4ccccc4-c4sc5c(c4C(=O)O)CC(C)(C)CC5)C3)cc2)NC(=O)OC2COC3(C)OCCC23)cc1 (stereo not shown) [Compound I-102] is less than 3 nM?
Response: N

###

- measurementNotes: Evaluation of total body clearance (CLtot), intravenous administration
- Assay type: in vivo, Sprague-Dawley (SD)
- conditionSet: rat (SD), intravenous administration 0.5-10 mg/kg; CLtot = dose/AUC
valueType: log10(rat_CLt) (log10 of the value in mL/min/kg)
On a log10 scale: recorded rat_CLt, unit mL/min/kg.

Please review the following examples before continuing.
{"compound": "COc1ccc(S(=O)(=O)N(CC(C)C)CC(O)C(Cc2ccc(NCc3cc(N4CCCC4)ccc3-c3sc4c(c3C(=O)O)CC(C)(C)CC4)cc2)NC(=O)OC2COC3(C)OCCC23)cc1 (stereo not shown)", "log10(rat_CLt)": -1.00}
{"compound": "CCCCCN(Cc1ccccc1-c1sc2c(c1C(=O)O)CC(C)(C)CC2)c1ccc(CC(NC(=O)OC2COC3(C)OCCC23)C(O)CN(CC(C)C)S(=O)(=O)c2ccc(OC)cc2)cc1 (stereo not shown)", "log10(rat_CLt)": 0.76}

Query: Recorded log10(rat_CLt) of COc1ccc(S(=O)(=O)N(CC(C)C)CC(O)C(Cc2ccc(N(C)Cc3ccccc3-n3nc4c(c3C(=O)O)CC(C)(C)CC4)cc2)NC(=O)OC2COC3(C)OCCC23)cc1 (stereo not shown) , please.
Response: -0.15

Query: Recorded log10(rat_CLt) of COc1ccc(S(=O)(=O)N(CC(C)C)CC(O)C(Cc2ccc(NCc3ccccc3-c3sc4c(c3C(=O)O)CC(C)(C)CC4)cc2)NC(=O)OC2COC3OCCC23)cc1 (stereo not shown) , please.
Response: 0.35

Query: Recorded log10(rat_CLt) of COc1ccc(S(=O)(=O)N(CC(C)C)CC(O)C(Cc2ccc(OCc3ccccc3NC(=O)c3sc4c(c3C(=O)O)CC(C)(C)CC4)cc2)NC(=O)OC2COC3(C)OCCC23)cc1 (stereo not shown) , please.
Response: -0.53

Query: Recorded log10(rat_CLt) of COc1ccc(S(=O)(=O)N(CC(C)C)CC(O)C(Cc2ccc(N(C)Cc3ccccc3C(=O)Nc3sc4c(c3C(=O)O)CC(C)(C)CC4)cc2)NC(=O)OC2COC3(C)OCCC23)cc1 (stereo not shown) , please.
Response: -0.51

Query: Recorded log10(rat_CLt) of COc1ccc(S(=O)(=O)N(CC(C)C)CC(O)C(Cc2ccc(N3CCC(Oc4ccccc4C(=O)Nc4sc5c(c4C(=O)O)CC(C)(C)CC5)C3)cc2)NC(=O)OC2COC3(C)OCCC23)cc1 (stereo not shown) , please.
Response: -0.54

Query: Recorded log10(rat_CLt) of COc1ccc(S(=O)(=O)N(CC(C)C)CC(O)C(Cc2ccc(NCc3cccc(C(F)(F)F)c3-c3sc4c(c3C(=O)O)CC(C)(C)CC4)cc2)NC(=O)OC2COC3(C)OCCC23)cc1 (stereo not shown) , please.
Response: -0.35

Query: Recorded log10(rat_CLt) of COc1ccc(S(=O)(=O)N(CC2CCCC2)CC(O)C(Cc2ccc(OCc3cc(C(F)(F)F)ccc3-c3nc4n(c3C(=O)O)CCCC4)cc2)NC(=O)OC2COC3(C)OCCC23)cc1 (stereo not shown) , please.
Response: 0.23

Query: Recorded log10(rat_CLt) of COc1ccc(S(=O)(=O)N(CC(C)C)CC(O)C(Cc2ccc(N3CCC(Oc4cc(C(F)(F)F)ccc4-c4sc5c(c4C(=O)O)CC(C)(C)CC5)C3)cc2)NC(=O)OC2COC3(C)OCCC23)cc1 (stereo not shown) , please.
Response: 0.22

// provenance: patent US20170253607A1
